Values compiled from ChEMBL document CHEMBL5365395.

PROCEDURE TEXT: Oral bioavailability in Beagle Dog at 2 umol/kg
Type: ADME, organism-based, Canis lupus familiaris
CONDITION CONTEXT: in vivo, at 2 µmol/kg
READOUT: bioavailability (%)
Lab book: enter the figure in %, no units written.

## Input Looking for the measured bioavailability of `Cc1nn2cc1CN(C)CCOCCNC(=O)c1nn(CCO)c3ccc(cc13)Nc1nccc-2n1` , can you help?
## Output 0.38

---

TARGET ENTITY: Voltage-gated inwardly rectifying potassium channel KCNH2 (Homo sapiens, UniProt Q12809)
Sequence (Q12809 whole entry): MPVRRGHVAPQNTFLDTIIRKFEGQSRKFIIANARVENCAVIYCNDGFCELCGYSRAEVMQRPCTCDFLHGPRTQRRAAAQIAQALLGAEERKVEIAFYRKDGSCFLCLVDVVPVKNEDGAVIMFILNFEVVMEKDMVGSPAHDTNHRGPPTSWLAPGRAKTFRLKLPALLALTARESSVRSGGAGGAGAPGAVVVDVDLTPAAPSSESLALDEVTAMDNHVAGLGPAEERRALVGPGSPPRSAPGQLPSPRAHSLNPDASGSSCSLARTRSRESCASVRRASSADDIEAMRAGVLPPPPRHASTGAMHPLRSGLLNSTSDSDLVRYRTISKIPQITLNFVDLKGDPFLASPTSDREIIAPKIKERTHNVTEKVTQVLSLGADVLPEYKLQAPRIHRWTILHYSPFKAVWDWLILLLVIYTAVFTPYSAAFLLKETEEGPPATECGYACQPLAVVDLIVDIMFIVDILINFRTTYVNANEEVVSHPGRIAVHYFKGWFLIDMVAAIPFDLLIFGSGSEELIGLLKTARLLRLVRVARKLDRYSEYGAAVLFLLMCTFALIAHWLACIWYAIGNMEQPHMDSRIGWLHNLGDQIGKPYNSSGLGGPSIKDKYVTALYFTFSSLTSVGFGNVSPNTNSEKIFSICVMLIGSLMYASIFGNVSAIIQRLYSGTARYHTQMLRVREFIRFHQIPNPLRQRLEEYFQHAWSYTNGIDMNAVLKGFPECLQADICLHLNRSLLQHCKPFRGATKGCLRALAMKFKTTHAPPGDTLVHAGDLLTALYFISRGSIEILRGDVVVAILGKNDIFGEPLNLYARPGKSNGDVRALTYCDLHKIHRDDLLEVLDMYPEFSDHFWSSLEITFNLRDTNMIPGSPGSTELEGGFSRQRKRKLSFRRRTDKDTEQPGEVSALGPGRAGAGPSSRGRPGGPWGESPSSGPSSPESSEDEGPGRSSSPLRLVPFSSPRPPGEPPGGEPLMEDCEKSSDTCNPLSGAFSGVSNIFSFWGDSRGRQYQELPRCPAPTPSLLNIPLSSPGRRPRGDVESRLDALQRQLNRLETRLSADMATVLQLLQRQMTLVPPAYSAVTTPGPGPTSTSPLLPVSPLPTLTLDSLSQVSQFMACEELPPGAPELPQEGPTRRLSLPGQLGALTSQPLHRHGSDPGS
PROCEDURE TEXT: Inhibition of human ERG by patch clamp assay
READOUT: pIC50
The quantity pIC50 is defined as the negative base-10 logarithm of the molar concentration.

Solved cases below.
Cc1nn2cc1CN(C)CCOCCNC(=O)c1nn(CCOC(=O)C(C)(C)C)c3ccc(cc13)Nc1nccc-2n1: 5.96
Cc1nn2cc1CN(C)CCOCCNC(=O)c1nn(C[C@@H](C)O)c3ccc(cc13)Nc1nccc-2n1: 4.66
CC(=O)OCCn1nc2c3cc(ccc31)Nc1nccc(n1)-n1cc(c(C)n1)CN(C)CCOCCNC2=O: 5.68
CC(=O)OC(C)(C)Cn1nc2c3cc(ccc31)Nc1nccc(n1)-n1cc(c(C)n1)CN(C)CCOCCNC2=O: 5.92

## Input Looking for the measured pIC50 of `Cc1nn2cc1CN(C)CCOCCNC(=O)c1nn(C3COC3)c3ccc(cc13)Nc1nccc-2n1` , can you help?
## Output 5.43

## Input Looking for the measured pIC50 of `Cc1nn2cc1CN(C)CCOCCNC(=O)c1nn(CC(C)(C)O)c3ccc(cc13)Nc1nccc-2n1` , can you help?
## Output 5.10

## Input Looking for the measured pIC50 of `Cc1nn2cc1CN(C)CCOCCNC(=O)c1nn(C)c3ccc(cc13)Nc1nccc-2n1` , can you help?
## Output 6.07

## Input Looking for the measured pIC50 of `Cc1nn2cc1CN(C)N1CCC(O)(CCNC(=O)c3nn(C)c4ccc(cc34)Nc3nccc-2n3)CC1` , can you help?
## Output 5.06
